Cited source: PubChem BioAssay AID2060499

# Tested on: 777334-354-R2-J4-PDC tumor spheroids with HUVEC/MSC, viability
# experiment_description: Anticancer human tumor 777334-354-R2-J4-PDC patient-derived pancreatic adenocarcinoma cell line growth inhibition [GQUAD]
# run_parameters: second compound 10 µM; first compound 0.0316 µM; active compounds read low
Rule for this label: 1 means viability, T/C is less than 40%; -1 means viability, T/C is at least 40%.

Query block: I'd appreciate it if you could check whether Cc1[nH]c2ccccc2c1CCNCc1ccc(/C=C/C(=O)NO)cc1 + Cc1cnc(CNC(=O)c2c(=O)c3ccc(N4CCCN(C)CC4)nc3n3c2sc2ccccc23)cn1 has viability, T/C smaller than 40%.
Result block: -1

Query block: I'd appreciate it if you could check whether O=C(NO)c1cnc(N2CCN(S(=O)(=O)c3ccc4ccccc4c3)CC2)nc1 + Cc1cnc(CNC(=O)c2c(=O)c3ccc(N4CCCN(C)CC4)nc3n3c2sc2ccccc23)cn1 has viability, T/C smaller than 40%.
Result block: -1

Query block: I'd appreciate it if you could check whether CC(C)(O)C1CCC(Nc2ccc3ncc(-c4cccc(C(F)(F)F)c4)n3n2)CC1 (stereo unspecified) + Cc1cnc(CNC(=O)c2c(=O)c3ccc(N4CCCN(C)CC4)nc3n3c2sc2ccccc23)cn1 has viability, T/C smaller than 40%.
Result block: -1

Query block: I'd appreciate it if you could check whether C=CCn1c(=O)c2cnc(Nc3ccc(N4CCN(C)CC4)cc3)nc2n1-c1cccc(C(C)(C)O)n1 + Cc1[nH]c2ccc(F)cc2c1-c1nc2c3cccnc3c3ncccc3c2[nH]1 has viability, T/C smaller than 40%.
Result block: 1

Query block: I'd appreciate it if you could check whether COc1cccc2c1C(=O)c1c(O)c3c(c(O)c1C2=O)CC(O)(C(=O)CO)CC3OC1CC(N)C(O)C(C)O1 (stereo unspecified) + CN(C)c1ccc(Nc2c3ccc(NC(=O)CCN4CCCC4)cc3nc3cc(NC(=O)CCN4CCCC4)ccc23)cc1 has viability, T/C smaller than 40%.
Result block: -1

Query block: I'd appreciate it if you could check whether C=CC(=O)N1CCN(c2nc(=O)n(-c3c(C)ccnc3C(C)C)c3nc(-c4c(O)cccc4F)c(F)cc23)C(C)C1 (stereo unspecified) + Cc1cnc(CNC(=O)c2c(=O)c3ccc(N4CCCN(C)CC4)nc3n3c2sc2ccccc23)cn1 has viability, T/C smaller than 40%.
Result block: -1

Query block: I'd appreciate it if you could check whether CC1COCCN1c1cc(C2(S(C)(=N)=O)CC2)nc(-c2ccnc3[nH]ccc23)n1 (stereo unspecified) + CN(C)c1ccc(Nc2c3ccc(NC(=O)CCN4CCCC4)cc3nc3cc(NC(=O)CCN4CCCC4)ccc23)cc1 has viability, T/C smaller than 40%.
Result block: -1

Query block: I'd appreciate it if you could check whether C#Cc1c(F)ccc2cc(O)cc(-c3ncc4c(N5CC6CCC(C5)N6)nc(OCC56CCCN5CC(F)C6)nc4c3F)c12 (stereo unspecified) + Cc1[nH]c2ccc(F)cc2c1-c1nc2c3cccnc3c3ncccc3c2[nH]1 has viability, T/C smaller than 40%.
Result block: 1

Query block: I'd appreciate it if you could check whether CC[C@@]1(O)C(=O)OCc2c1cc1n(c2=O)Cc2cc3c(CN(C)C)c(O)ccc3nc2-1 + Cc1cnc(CNC(=O)c2c(=O)c3ccc(N4CCCN(C)CC4)nc3n3c2sc2ccccc23)cn1 has viability, T/C smaller than 40%.
Result block: -1

Query block: I'd appreciate it if you could check whether CCCS(=O)(=O)Nc1ccc(F)c(C(=O)c2c[nH]c3ncc(-c4ccc(Cl)cc4)cc23)c1F + CN(C)c1ccc(Nc2c3ccc(NC(=O)CCN4CCCC4)cc3nc3cc(NC(=O)CCN4CCCC4)ccc23)cc1 has viability, T/C smaller than 40%.
Result block: -1

Query block: I'd appreciate it if you could check whether O=C(NO)c1cnc(N2CCN(S(=O)(=O)c3ccc4ccccc4c3)CC2)nc1 + Cc1[nH]c2ccc(F)cc2c1-c1nc2c3cccnc3c3ncccc3c2[nH]1 has viability, T/C smaller than 40%.
Result block: 1

Query block: I'd appreciate it if you could check whether CC(C)(O)C1CCC(Nc2ccc3ncc(-c4cccc(C(F)(F)F)c4)n3n2)CC1 (stereo unspecified) + Cc1[nH]c2ccc(F)cc2c1-c1nc2c3cccnc3c3ncccc3c2[nH]1 has viability, T/C smaller than 40%.
Result block: 1

Query block: I'd appreciate it if you could check whether CC1COCCN1c1cc(C2(O)CC3CCC(C2)O3)c2cnn(-c3ccn[nH]3)c2n1 (stereo unspecified) + CN(C)c1ccc(Nc2c3ccc(NC(=O)CCN4CCCC4)cc3nc3cc(NC(=O)CCN4CCCC4)ccc23)cc1 has viability, T/C smaller than 40%.
Result block: -1

Query block: I'd appreciate it if you could check whether CC1COCCN1c1cc(C2(O)CC3CCC(C2)O3)c2cnn(-c3ccn[nH]3)c2n1 (stereo unspecified) + Cc1cnc(CNC(=O)c2c(=O)c3ccc(N4CCCN(C)CC4)nc3n3c2sc2ccccc23)cn1 has viability, T/C smaller than 40%.
Result block: -1

Query block: I'd appreciate it if you could check whether Cn1ncnc1[C@H]1c2n[nH]c(=O)c3cc(F)cc(c23)N[C@@H]1c1ccc(F)cc1 + Cc1cnc(CNC(=O)c2c(=O)c3ccc(N4CCCN(C)CC4)nc3n3c2sc2ccccc23)cn1 has viability, T/C smaller than 40%.
Result block: -1

Query block: I'd appreciate it if you could check whether Nc1ccn(C2OC(CO)C(O)C2(F)F)c(=O)n1 (stereo unspecified) + Cc1[nH]c2ccc(F)cc2c1-c1nc2c3cccnc3c3ncccc3c2[nH]1 has viability, T/C smaller than 40%.
Result block: 1

Query block: I'd appreciate it if you could check whether COc1ccc([C@@H](O)c2cc(-c3ncnc4cc(N5CCOCC5)ccc34)c(F)cc2Cl)nn1 + CN(C)c1ccc(Nc2c3ccc(NC(=O)CCN4CCCC4)cc3nc3cc(NC(=O)CCN4CCCC4)ccc23)cc1 has viability, T/C smaller than 40%.
Result block: -1

Query block: I'd appreciate it if you could check whether CC1COCCN1c1cc(-c2ccnn2C)c2ccnc(-c3ccn[nH]3)c2n1 (stereo unspecified) + CN(C)c1ccc(Nc2c3ccc(NC(=O)CCN4CCCC4)cc3nc3cc(NC(=O)CCN4CCCC4)ccc23)cc1 has viability, T/C smaller than 40%.
Result block: -1

Query block: I'd appreciate it if you could check whether CCc1c2c(nc3ccc(O)cc13)-c1cc3c(c(=O)n1C2)COC(=O)[C@]3(O)CC + CN(C)c1ccc(Nc2c3ccc(NC(=O)CCN4CCCC4)cc3nc3cc(NC(=O)CCN4CCCC4)ccc23)cc1 has viability, T/C smaller than 40%.
Result block: 1

Query block: I'd appreciate it if you could check whether C#Cc1c(F)ccc2cc(O)cc(-c3ncc4c(N5CC6CCC(C5)N6)nc(OCC56CCCN5CC(F)C6)nc4c3F)c12 (stereo unspecified) + Cc1cnc(CNC(=O)c2c(=O)c3ccc(N4CCCN(C)CC4)nc3n3c2sc2ccccc23)cn1 has viability, T/C smaller than 40%.
Result block: 1

Query block: I'd appreciate it if you could check whether Cc1[nH]c2ccccc2c1CCNCc1ccc(/C=C/C(=O)NO)cc1 + CN(C)c1ccc(Nc2c3ccc(NC(=O)CCN4CCCC4)cc3nc3cc(NC(=O)CCN4CCCC4)ccc23)cc1 has viability, T/C smaller than 40%.
Result block: -1

---

# Tested on: 777334-354-R2-J4-PDC tumor spheroids with HUVEC/MSC, viability
# experiment_description: Anticancer human tumor 777334-354-R2-J4-PDC cell line growth inhibition [GQUAD];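 note: spheroids exposed to compounds for 7 days before readout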
# run_parameters: second compound 10 µM; first compound 3.16 µM; active compounds read low
# From the text: DNA G-quadruplex Stabilizer Agents in Combinations in Complex Spheroids A high-throughput screen of multi-cell type tumor spheroids was designed to identify active combinations of DNA G-quadruplex stabilizer agents and targeted small molecules. […] Compounds. […] If the clinical Cmax for an agent had not been determined, the highest concentration tested was 10 microM. […]
property_measured: viability, T/C (%)
Provide the reading as a plain figure in %.

Query block: Value wanted: viability, T/C (777334-354-R2-J4-PDC tumor spheroids with HUVEC/MSC, viability) of entry O=C(NO)c1cnc(N2CCN(S(=O)(=O)c3ccc4ccccc4c3)CC2)nc1 + CN(C)c1ccc(Nc2c3ccc(NC(=O)CCN4CCCC4)cc3nc3cc(NC(=O)CCN4CCCC4)ccc23)cc1
Result block: 11.1

Query block: Value wanted: viability, T/C (777334-354-R2-J4-PDC tumor spheroids with HUVEC/MSC, viability) of entry COc1ccc([C@@H](O)c2cc(-c3ncnc4cc(N5CCOCC5)ccc34)c(F)cc2Cl)nn1 + Cc1[nH]c2ccc(F)cc2c1-c1nc2c3cccnc3c3ncccc3c2[nH]1
Result block: 13

Query block: Value wanted: viability, T/C (777334-354-R2-J4-PDC tumor spheroids with HUVEC/MSC, viability) of entry CC1COCCN1c1cc(C2(O)CC3CCC(C2)O3)c2cnn(-c3ccn[nH]3)c2n1 (stereo unspecified) + Cc1[nH]c2ccc(F)cc2c1-c1nc2c3cccnc3c3ncccc3c2[nH]1
Result block: 7.7

Query block: Value wanted: viability, T/C (777334-354-R2-J4-PDC tumor spheroids with HUVEC/MSC, viability) of entry CC1COCCN1c1cc(-c2ccnn2C)c2ccnc(-c3ccn[nH]3)c2n1 (stereo unspecified) + Cc1[nH]c2ccc(F)cc2c1-c1nc2c3cccnc3c3ncccc3c2[nH]1
Result block: 12.7

Query block: Value wanted: viability, T/C (777334-354-R2-J4-PDC tumor spheroids with HUVEC/MSC, viability) of entry CCCS(=O)(=O)Nc1ccc(F)c(C(=O)c2c[nH]c3ncc(-c4ccc(Cl)cc4)cc23)c1F + CN(C)c1ccc(Nc2c3ccc(NC(=O)CCN4CCCC4)cc3nc3cc(NC(=O)CCN4CCCC4)ccc23)cc1
Result block: 81.1

Query block: Value wanted: viability, T/C (777334-354-R2-J4-PDC tumor spheroids with HUVEC/MSC, viability) of entry CC1COCCN1c1cc(C2(S(C)(=N)=O)CC2)nc(-c2ccnc3[nH]ccc23)n1 (stereo unspecified) + Cc1cnc(CNC(=O)c2c(=O)c3ccc(N4CCCN(C)CC4)nc3n3c2sc2ccccc23)cn1
Result block: 57.5

Query block: Value wanted: viability, T/C (777334-354-R2-J4-PDC tumor spheroids with HUVEC/MSC, viability) of entry COc1cc(C2c3cc4c(cc3C(OC3OC5COC(C)OC5C(O)C3O)C3COC(=O)C23)OCO4)cc(OC)c1O (stereo unspecified) + CN(C)c1ccc(Nc2c3ccc(NC(=O)CCN4CCCC4)cc3nc3cc(NC(=O)CCN4CCCC4)ccc23)cc1
Result block: 55

Query block: Value wanted: viability, T/C (777334-354-R2-J4-PDC tumor spheroids with HUVEC/MSC, viability) of entry CC(=O)O[C@H]1C(=O)[C@@]2(C)[C@H]([C@H](OC(=O)c3ccccc3)[C@]3(O)C[C@H](OC(=O)[C@H](O)[C@@H](NC(=O)c4ccccc4)c4ccccc4)C(C)=C1C3(C)C)[C@]1(OC(C)=O)CO[C@@H]1C[C@@H]2O + Cc1[nH]c2ccc(F)cc2c1-c1nc2c3cccnc3c3ncccc3c2[nH]1
Result block: 15.3

Query block: Value wanted: viability, T/C (777334-354-R2-J4-PDC tumor spheroids with HUVEC/MSC, viability) of entry O=C(NO)c1cnc(N2CCN(S(=O)(=O)c3ccc4ccccc4c3)CC2)nc1 + Cc1[nH]c2ccc(F)cc2c1-c1nc2c3cccnc3c3ncccc3c2[nH]1
Result block: 19.7

Query block: Value wanted: viability, T/C (777334-354-R2-J4-PDC tumor spheroids with HUVEC/MSC, viability) of entry Cc1cccc(N(C)C(=O)C2C(O)CCN2c2nc(C)cc(C(F)(F)F)c2C#N)c1 (stereo unspecified) + Cc1[nH]c2ccc(F)cc2c1-c1nc2c3cccnc3c3ncccc3c2[nH]1
Result block: 25.7

Query block: Value wanted: viability, T/C (777334-354-R2-J4-PDC tumor spheroids with HUVEC/MSC, viability) of entry O=C(c1cc(Cc2n[nH]c(=O)c3ccccc23)ccc1F)N1CCN(C(=O)C2CC2)CC1 + Cc1cnc(CNC(=O)c2c(=O)c3ccc(N4CCCN(C)CC4)nc3n3c2sc2ccccc23)cn1
Result block: 61.9
